Assay: solubility of the dyes in water
Type: physicochemical
Details: excess dye stirred 1 h at 50° C., cooled to 20° C., filtered, spectroscopic determination, read-out: Solubility (in g per 100 ml)
result type: solubility (mg/mL)

I: COc1cc(N=Nc2c(N)ccc3cc(S(=O)(=O)O)cc(O)c23)c(C)cc1Nc1nc(NCCO)nc(Nc2cccc(S(=O)(=O)O)c2)n1 [dye 1, reference compound]
II: Nc1ccc2cc(S(=O)(=O)O)cc(O)c2c1N=Nc1ccc(Nc2nc(NCCS(=O)(=O)O)nc(N(CCO)CCO)n2)cc1S(=O)(=O)O [compound 101]
Sorting by solubility in descending order, would I or II appear first? Let me know the label of the one you choose.
II

I: Nc1ccc2cc(S(=O)(=O)O)cc(O)c2c1N=Nc1ccc(Nc2nc(NCCS(=O)(=O)O)nc(NCCS(=O)(=O)O)n2)cc1S(=O)(=O)O [compound 102]
II: CCCCCCNc1nc(NCCCCCC)nc(Nc2cc(S(=O)(=O)O)cc3cc(S(=O)(=O)O)c(N=Nc4ccccc4S(=O)(=O)O)c(O)c23)n1 [dye 5, reference compound]
Sorting by solubility in descending order, would I or II appear first? Let me know the label of the one you choose.
I
(I: 260 mg/mL, II: 150 mg/mL)
